- assayed.system: KPNA4 ARM (importin subunit alpha-3, armadillo repeat domain) (human) (UniProt O00629)
- Sequence (O00629 whole entry, the tested form may be a part): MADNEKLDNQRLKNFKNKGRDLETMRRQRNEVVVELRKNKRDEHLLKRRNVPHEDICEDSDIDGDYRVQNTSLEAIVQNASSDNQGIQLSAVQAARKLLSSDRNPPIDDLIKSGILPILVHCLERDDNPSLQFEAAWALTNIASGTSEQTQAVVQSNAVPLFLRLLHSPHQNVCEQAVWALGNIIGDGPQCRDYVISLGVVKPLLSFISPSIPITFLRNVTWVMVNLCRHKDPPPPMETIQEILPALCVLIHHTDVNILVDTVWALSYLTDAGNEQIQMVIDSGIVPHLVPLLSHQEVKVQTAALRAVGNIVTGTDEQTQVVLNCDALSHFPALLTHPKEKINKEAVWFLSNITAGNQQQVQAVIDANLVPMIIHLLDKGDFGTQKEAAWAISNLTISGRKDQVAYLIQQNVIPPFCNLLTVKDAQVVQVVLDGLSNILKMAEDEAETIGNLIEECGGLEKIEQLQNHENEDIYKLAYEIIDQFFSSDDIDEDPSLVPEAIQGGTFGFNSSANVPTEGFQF
- experiment.notes: fluorescence polarisation; competition: unlabelled peptide in serial dilution against KPNA4 ARM (master mix at four times the KD) with the probe FITC-Myc(320-328), probe of the major pocket; 50 mM KPO4 pH 7.5; Ki calculated from IC50
Where no end group is shown, it is not given here.
measured.quantity: log10(Ki) (log10 of the value in nM)

{"columns": ["binder", "log10(Ki)"],
 "data": [
  ["VEPETKRLKLAASEDH-NH2 [ZRANB3 571-586 peptide]", 2.15],
  ["EDSIEPPHKRLCLSSE-NH2 [DMTF1 44-59 peptide]", 1.88],
  ["ERENPSKRSRIERDID-NH2 [CTDSPL2 64-79 peptide]", 3.08],
  ["IPEKKQRLEEATTICL-NH2 [AFF2 864-879 peptide]", 3.18],
  ["Ac-YKCKRQRQDQTLELVGL-NH2 [NKX2-5 192-207 peptide, wild type]", 3.83],
  ["DLKRRLDSITSSQSSA-NH2 [KDR 958-973 peptide]", 4.15],
  ["DHQFPAKRPRLSEPQG-NH2 [HJURP 675-690 peptide]", 1.58],
  ["Ac-YKCRRQRQDQTLELVGL-NH2 [NKX2-5 192-207 peptide, K194R]", 4.80]
]}

The measurements presented in this section are drawn from paper PMC8769072.
